- experimental-protocol: Solubility of the compound in DMSO at 200 uM
- Format: physicochemical
value-kind: solubility

smiles_notation=COC(=O)c1cc2nc(SCC(=O)Nc3ccc([N+](=O)[O-])cn3)[nH]c2cc1Cl value_kind=solubility result=Insoluble
smiles_notation=COC(=O)c1cc2nc(SCC(=O)Nc3ccc(OC)cn3)[nH]c2cc1Cl value_kind=solubility result=Insoluble
smiles_notation=COC(=O)c1cc2nc(SCC(=O)Nc3cccc(C)n3)[nH]c2cc1Cl value_kind=solubility result=Insoluble
smiles_notation=COC(=O)c1cc2nc(SCC(=O)Nc3ccc(Cl)cc3)[nH]c2cc1Cl value_kind=solubility result=Insoluble
smiles_notation=COC(=O)c1cc2nc(SCC(=O)Nc3ccc(Cl)cn3)[nH]c2cc1Cl value_kind=solubility result=Insoluble
smiles_notation=COC(=O)c1cc2nc(SCC(=O)Nc3cccc(C(N)=O)n3)[nH]c2cc1Cl value_kind=solubility result=Insoluble
smiles_notation=COC(=O)c1cc2nc(SCC(=O)Nc3cccc(Cl)n3)[nH]c2cc1Cl value_kind=solubility result=Insoluble

====

- Test system: Trypanosoma cruzi
- experimental-protocol: Antitrypanosomal activity against epimastigote forms of Trypanosoma cruzi NINOA isolated from chagas disease patient after 24 hrs by resazurin dye based spectrophotometric analysis
- Format: functional, organism-based
Decide using IC50 alone. Strictly below 100 µM: criterion met. Equal to or above 100 µM: criterion not met.

compound=COC(=O)c1cc2nc(SCC(=O)Nc3ncc([N+](=O)[O-])s3)[nH]c2cc1Cl target_of_assay="Trypanosoma cruzi" category_label="criterion met"
compound=COC(=O)c1cc2nc(SCC(=O)Nc3nccs3)[nH]c2cc1Cl target_of_assay="Trypanosoma cruzi" category_label="criterion not met"
compound="CC1CS(=O)(=O)CCN1/N=C/c1ccc([N+](=O)[O-])o1 (stereo unspecified)" target_of_assay="Trypanosoma cruzi" category_label="criterion met"
compound=COC(=O)c1cc2nc(SCC(=O)Nc3ccc(Cl)cn3)[nH]c2cc1Cl target_of_assay="Trypanosoma cruzi" category_label="criterion not met"
compound=COC(=O)c1cc2nc(SCC(=O)Nc3ccc(Cl)cc3)[nH]c2cc1Cl target_of_assay="Trypanosoma cruzi" category_label="criterion met"
